FYI, the data here is from PubChem BioAssay AID504834.

PROCEDURE DETAILS: Primary qHTS for delayed death inhibitors of the malarial parasite plastid, 96 hour incubation
CONDITION DESCRIPTION: P. falciparum luciferase reporter growth; series mostly up to 28.7 µM
Screen size: about 320,000 compounds; about 22,000 (6.9%) were called active. Inconclusive results (about 27%) are left out. The call rests on the fitted dose curve; in most records, active means well fitted inhibition curve with a large enough effect; inconclusive means small, poorly fitted or top-dose-only effect, or another doubt; inactive means no such curve, though single readings can be large or run the other way. This is one part of a sample in which actives are shown more often than they occur.
Hello, when you answer, please use one of the following outcomes: yes (active), no (inactive)

A selection of reference data follows.
{"COMPOUND": "COCc1c(C(=O)N/N=C(\\C)c2ccncc2)nnn1-c1nonc1N", "LABEL VALUE": "no"}
{"COMPOUND": "Cc1noc(C)c1COc1ccc(C(=O)NCCOc2ccccc2)cc1", "LABEL VALUE": "no"}
{"COMPOUND": "O=C(NNS(=O)(=O)c1ccc(Cl)cc1)C1CCN(Cc2ccccc2)CC1", "LABEL VALUE": "no"}
{"COMPOUND": "COc1ccc(CCn2c(-c3ccco3)nc3nc4ccccc4nc32)cc1OC", "LABEL VALUE": "no"}
{"COMPOUND": "O=C(Nc1ccccc1F)c1ccc(S(=O)(=O)N2CCCCCC2)cc1", "LABEL VALUE": "no"}

Challenge: Tell me the recorded outcome of this test for COc1ccc(CCNC(=O)CN2C(=O)COc3ccc(S(=O)(=O)N4CCCC4)cc32)cc1OC .
Response given: no

Challenge: How about this compound: CCOC(=O)c1csc(NC(=O)c2ccc(S(=O)(=O)N3CCCC3)cc2)n1
Response given: no

Challenge: How about this compound: Cc1cccc(NC(=O)c2cccc(C(=O)Nc3cccc(C)c3C)n2)c1C
Response given: no

Challenge: How about this compound: O=C(Nc1ncccc1O)c1ccc(C(=O)c2ccccc2)cc1
Response given: yes

====

PROCEDURE DETAILS: Primary qHTS for delayed death inhibitors of the malarial parasite plastid, 96 hour incubation
CONDITION DESCRIPTION: P. falciparum luciferase reporter growth; series mostly up to 28.7 µM
Out of some 320,000 compounds screened, about 22,000 (6.9%) were called active. Not shown: some 27% with an inconclusive outcome. The call rests on the fitted dose curve; in most records, active means well fitted inhibition curve with a large enough effect; inconclusive means small, poorly fitted or top-dose-only effect, or another doubt; inactive means no such curve, though single readings can be large or run the other way. The full list was thinned out, with actives kept by preference.
Hello, when you answer, please use one of the following outcomes: T (active), F (inactive)

A selection of reference data follows.
{"COMPOUND": "COc1ccccc1C(=O)NNC(=O)c1ccc(NC(=O)c2ccccc2)cc1", "LABEL VALUE": "F"}
{"COMPOUND": "O=C(CN1CCN(S(=O)(=O)c2cccc(Cl)c2)CC1)N1CCCCC1", "LABEL VALUE": "F"}
{"COMPOUND": "CCn1c(CC(=O)Nc2ccccc2C)nnc1SCC(=O)NC1=NCCS1", "LABEL VALUE": "F"}
{"COMPOUND": "Cc1nnc2n1N=C(c1ccccc1)CS2", "LABEL VALUE": "F"}

Challenge: Tell me the recorded outcome of this test for Cc1ccc(C(=O)OCC(=O)N2CC(C)CC(C)C2)cc1S(=O)(=O)N1CCCCC1 (configuration not stated) .
Response given: F

Challenge: How about this compound: COc1ccc(NC(=O)C2=CC(c3ccc(OC)c(OC)c3)=NS(=O)(=O)N2C)cc1
Response given: F

Challenge: How about this compound: C/C(=N\NC(N)=S)c1ccncc1
Response given: F

Challenge: How about this compound: CSc1ccccc1OCc1cc(C(=O)N2C[C@H]3CC[C@H]2C3)no1
Response given: F

====

PROCEDURE DETAILS: Primary qHTS for delayed death inhibitors of the malarial parasite plastid, 96 hour incubation
CONDITION DESCRIPTION: P. falciparum luciferase reporter growth; series mostly up to 28.7 µM
Hit rate of the full screen: of about 320,000 compounds, about 22,000 (6.9%) were called active. About 27% were inconclusive and are not listed. Calls come from the whole dose curve; as a rule, active = well fitted inhibition curve with a large enough effect; inconclusive = small, poorly fitted or top-dose-only effect, or another doubt; inactive = no such curve, though single readings can be large or run the other way. For the sample, actives were picked, then their nearest neighbours and some compounds at random.
Hello, when you answer, please use one of the following outcomes: active, inactive

{"COMPOUND": "CC(C)CCNC(=O)c1cccnc1Sc1ccccc1", "LABEL VALUE": "inactive"}
{"COMPOUND": "CNCC(O)CN1CCN(c2ccccc2OC)CC1 (stereo not given)", "LABEL VALUE": "inactive"}
{"COMPOUND": "CCO[C@H]1OC(C(=O)N2CCN(Cc3ccccc3)CC2)=C[C@@H](c2cn(C(C)=O)c3ccccc23)[C@@H]1CCCO", "LABEL VALUE": "active"}

Challenge: Tell me the recorded outcome of this test for C/C(=N\N=C(N)N)c1ccc(Cl)cc1 .
Response given: active

Challenge: How about this compound: Cc1ccccc1-n1nc(C)c2cc(C(=O)NC3CC3)sc21
Response given: active

Challenge: How about this compound: COc1ccc(S(=O)(=O)NC(C)C(=O)N2CCCCCC2)cc1 (stereo not given)
Response given: inactive

Challenge: How about this compound: CCOc1ccccc1OCCCNCc1ccccc1
Response given: inactive

====

PROCEDURE DETAILS: Primary qHTS for delayed death inhibitors of the malarial parasite plastid, 96 hour incubation
CONDITION DESCRIPTION: P. falciparum luciferase reporter growth; series mostly up to 28.7 µM
Out of some 320,000 compounds screened, about 22,000 (6.9%) were called active. Inconclusive results (about 27%) are left out. The call rests on the fitted dose curve; in most records, active means well fitted inhibition curve with a large enough effect; inconclusive means small, poorly fitted or top-dose-only effect, or another doubt; inactive means no such curve, though single readings can be large or run the other way. Shown is part of a subset that was picked to be rich in actives.
Hello, when you answer, please use one of the following outcomes: active, inactive

A selection of reference data follows.
{"COMPOUND": "Cc1cccc(-n2ncc(Cl)c(Cl)c2=O)c1", "LABEL VALUE": "inactive"}
{"COMPOUND": "CC(=O)N1CCc2c(sc(NC(=O)CCS(=O)(=O)c3ccc(C)cc3)c2C(N)=O)C1", "LABEL VALUE": "inactive"}
{"COMPOUND": "COc1nc(N(C)C)nc(N2CC(=O)N(CCNS(=O)(=O)c3ccc(C)cc3)C2=N)n1", "LABEL VALUE": "active"}
{"COMPOUND": "C/C=C(/C)C(=O)Nc1cccc(C2=NOC3(C2)C[C@@H](C(N)=O)N(C(=O)C2(C)CC2)C3)c1 (stereo partly specified)", "LABEL VALUE": "inactive"}
{"COMPOUND": "Cc1c(OC(C)C(=O)NCC2CCC(C(=O)O)CC2)ccc2c1oc(=O)c1ccccc12 (stereo unspecified)", "LABEL VALUE": "active"}

Challenge: Tell me the recorded outcome of this test for CN(C)CCN(C(=O)C1=COCCO1)c1nc2ccc(Cl)cc2s1 .
Response given: inactive

Challenge: How about this compound: CN(Cc1ccc(F)cc1Cl)S(=O)(=O)c1cccs1
Response given: inactive

Challenge: How about this compound: CN(CC(=O)Nc1ccc(F)c(F)c1F)C(=O)C1CC(=O)N(C2CCCC2)C1 (stereo unspecified)
Response given: inactive

====

PROCEDURE DETAILS: Primary qHTS for delayed death inhibitors of the malarial parasite plastid, 96 hour incubation
CONDITION DESCRIPTION: P. falciparum luciferase reporter growth; series mostly up to 28.7 µM
About 22,000 (6.9%) of roughly 320,000 compounds were called active. Inconclusive results (about 27%) are left out. Calls come from the whole dose curve; as a rule, active = well fitted inhibition curve with a large enough effect; inconclusive = small, poorly fitted or top-dose-only effect, or another doubt; inactive = no such curve, though single readings can be large or run the other way. The sample as a whole holds a higher share of actives than the screen did.
Hello, when you answer, please use one of the following outcomes: 1 (active), -1 (inactive)

{"MOL": "C=CCNC(=O)COc1coc(CN2CCN(Cc3ccccc3)CC2)cc1=O", "LABEL VALUE": 1}
{"MOL": "CCOC(=O)Nc1ccc2c(c1)N(C(=O)CCCl)c1ccccc1[S@]2=O", "LABEL VALUE": -1}
{"MOL": "CCCCN(C(=O)C1CCC1)c1c(N)n(Cc2ccccc2)c(=O)[nH]c1=O", "LABEL VALUE": -1}
{"MOL": "COc1ccc(C(=O)NCCSc2ccccc2C)cc1", "LABEL VALUE": 1}
{"MOL": "C/C(CC(=O)NCc1ccc(Cl)cc1)=N\\NC(=O)COc1ccc(C)cc1Br", "LABEL VALUE": -1}

API: the following record is the query input.
Challenge: Tell me the recorded outcome of this test for Cc1cc(C)cc(NC(=O)COc2coc(CN3CCN(c4ccccc4)CC3)cc2=O)c1 .
Response given: -1

====

PROCEDURE DETAILS: Primary qHTS for delayed death inhibitors of the malarial parasite plastid, 96 hour incubation; further: potency means the concentration at half of the fitted maximal effect
CONDITION DESCRIPTION: P. falciparum luciferase reporter growth; series mostly up to 28.7 µM
In all, about 320,000 compounds went through this assay and about 22,000 (6.9%) were called active. About 27% were inconclusive and are not listed. The list comes from a sample in which actives are over-represented; it also holds close analogues and randomly drawn compounds.
RESULT TYPE: Potency

Solved entries:
{"COMPOUND": "CC(Cc1ccccc1)NCCC(c1ccccc1)c1ccccc1 (stereo not given)", "Potency": "14.7 µM (active)"}
{"COMPOUND": "COC(=O)CNS(=O)(=O)c1ccc(OC)cc1", "Potency": "inactive"}
{"COMPOUND": "CCc1c(C)nc2cc(-c3cccs3)[nH]n2c1=O", "Potency": "2.08 µM (active)"}
{"COMPOUND": "O=C(N/C(=C/c1ccc(Cl)cc1)C(=O)N1CCCCC1)c1ccco1", "Potency": "inactive"}
{"COMPOUND": "COc1ccc(S(=O)(=O)NCCc2cc3ccc(C)c(C)c3[nH]c2=O)cc1", "Potency": "8.28 µM (active)"}
{"COMPOUND": "CN(C)C(=O)COC(=O)c1cccc(S(=O)(=O)N2CC3(C)CC2CC(C)(C)C3)c1 (stereo not given)", "Potency": "inactive"}
{"COMPOUND": "Cc1ncoc1C(=O)NCCC(c1ccccc1)c1ccccc1", "Potency": "inactive"}
{"COMPOUND": "COc1ccc(CCNS(=O)(=O)c2cccc([N+](=O)[O-])c2)cc1", "Potency": "inactive"}

Challenge: Entry NC(=O)c1oc2ccccc2c1NC(=O)CS(=O)(=O)c1ccccc1 : reported Potency = ?
Response given: inactive

Challenge: How about this compound: COc1ccc(-c2ccc(OC(=O)NC3CCS(=O)(=O)C3)cc2)cc1 (stereo not given)
Response given: inactive
